Reported Hepatotoxicity (cytolytic) by item:
# CONDITION_NOTES: human
PROPERTY_NAME: Hepatotoxicity (cytolytic)

substance=POLOXAMER recorded_value=0
substance=ENOXAPARIN recorded_value=0
substance=SERRAPEPTASE recorded_value=0
substance=ALTEPLASE recorded_value=1
substance=ALDESLEUKIN recorded_value=6
substance=FILGRASTIM recorded_value=2
substance=STIBOGLUCONATE recorded_value=1
substance="ANTIMONY (III) ION" recorded_value=1
substance=GENTAMICIN recorded_value=0
substance="GONADOTROPIN, SERUM" recorded_value=1
substance=COLESTIPOL recorded_value=1
substance=RITUXIMAB recorded_value=4
substance=ANISTREPLASE recorded_value=1
substance="MEGLUMINE ANTIMONATE" recorded_value=0
substance="INTERFERON ALFA-2A" recorded_value=7
substance=PEGASPARGASE recorded_value=0
substance=BLEOMYCIN recorded_value=0
substance="TINZAPARIN SODIUM" recorded_value=0
substance="REVIPARIN SODIUM" recorded_value=0
substance="INSULIN HUMAN" recorded_value=1
substance="INTERFERON BETA" recorded_value=5
substance=POVIDONE-IODINE recorded_value=0
substance="BEMIPARIN SODIUM" recorded_value=0
substance=IVERMECTIN recorded_value=0
substance=POVIDONE recorded_value=0
substance="EPOETIN ALFA" recorded_value=0
substance=GALLIUM recorded_value=0
substance=PARAFFIN recorded_value=0
substance="CAPROMAB PENDETIDE" recorded_value=0
substance="DENILEUKIN DIFTITOX" recorded_value=1
substance=ASPARAGINASE recorded_value=1
substance=PEGLOTICASE recorded_value=0
substance=NARTOGRASTIM recorded_value=0
substance="INTERLEUKIN 1BETA" recorded_value=0
substance=CARBETIMER recorded_value=0
substance="GEMTUZUMAB OZOGAMICIN" recorded_value=10
substance="INTERFERON GAMMA-1A" recorded_value=2
substance=PALIVIZUMAB recorded_value=0
substance="PENTOSAN POLYSULFATE SODIUM" recorded_value=1
substance=PEGVISOMANT recorded_value=2

----------
# CONDITION_NOTES: human, serum
Classify: fulfilled when Hepatotoxicity (moderate) is strictly less than 1; not fulfilled when Hepatotoxicity (moderate) is not.

compound="N#C[C@H](O[C@@H]1O[C@H](CO[C@@H]2O[C@H](CO)[C@@H](O)[C@H](O)[C@H]2O)[C@@H](O)[C@H](O)[C@H]1O)c1ccccc1 [AMYGDALIN]" group_label=fulfilled
compound="Cc1ccc(C(=O)c2cc(O)c(O)c([N+](=O)[O-])c2)cc1 [TOLCAPONE]" group_label="not fulfilled"
compound="CC1(C)[C@@H](OC(=O)CCC(=O)O)CC[C@]2(C)[C@H]3C(=O)C=C4[C@@H]5C[C@@](C)(C(=O)O)CC[C@]5(C)CC[C@@]4(C)[C@]3(C)CC[C@@H]12 [CARBENOXOLONE]" group_label="not fulfilled"
compound="Cc1nccn1CC1CCc2c(c3ccccc3n2C)C1=O (stereo not drawn) [ONDANSETRON]" group_label="not fulfilled"
compound="CCC[N+]12[C@H](O)[C@@H](CC)[C@@H]3C[C@H]1[C@@H]1N(C)c4ccccc4[C@]14C[C@H]2C3[C@H]4O (stereo partly drawn)" group_label=fulfilled
compound="CC(C(=O)O)c1cccc(C(=O)c2ccccc2)c1 (stereo not drawn) [KETOPROFEN]" group_label="not fulfilled"
compound="FCOC(C(F)(F)F)C(F)(F)F [SEVOFLURANE]" group_label="not fulfilled"
compound="NCC1(CC(=O)O)CCCCC1 [GABAPENTIN]" group_label="not fulfilled"
compound="CCn1cc(C(=O)O)c(=O)c2cc(F)c(N3CCN(C)CC3)cc21 [PEFLOXACIN]" group_label="not fulfilled"
compound="CCN1CCCC1CNC(=O)c1cc(S(N)(=O)=O)ccc1OC (stereo not drawn) [SULPIRIDE]" group_label="not fulfilled"
compound="CN1CCN(CCCN2c3ccccc3Sc3ccc(C(F)(F)F)cc32)CC1 [TRIFLUOPERAZINE]" group_label="not fulfilled"
compound="Nc1ccc(S(=O)(=O)Nc2ccccn2)cc1 [SULFAPYRIDINE]" group_label=fulfilled
